B1: library; a variant is named by its letters at N, in order (parent)
chain: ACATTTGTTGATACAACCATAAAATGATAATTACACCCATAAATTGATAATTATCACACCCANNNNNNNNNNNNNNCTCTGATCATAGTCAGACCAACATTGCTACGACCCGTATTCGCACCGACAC

variants of: B1; test: relative integration efficiency (T-RL orientation) vs wild-type transposon end (log2 (normalized fold change)); transposon end mutated: right end (5 bp flank + 75 bp right end); higher = more efficient transposition; details: with VchCAST RNA-guided transposition machinery (E. coli BL21(DE3) host, lacZ target)
Lab note: anything with relative integration efficiency (log2) at or over -0.8 counts as fulfilled; the rest go in not fulfilled.

Request: API: above_or_equal(metric=relative integration efficiency (log2), cutoff=-0.8) for item ATTTAACTATAACG A35T
Result: not fulfilled

Request: Threshold query (relative integration efficiency (log2) >= -0.8) on TAAATTGATATTGC T28C
Result: fulfilled

Request: Is relative integration efficiency (log2) for ATTTAACTATAACG A16C at or above -0.8?
Result: not fulfilled

Hello, the source for this data is the supplement of paper PMC10201428, in case you need it.
